Each record here notes measured T/C.
Tested on: L1210 leukemia ip in BDF1 mice, survival T/C
Experiment: NCI In Vivo Anticancer Drug Screen. Data for tumor model L1210 Leukemia (intraperitoneal) in B6D2F1 (BDF1) mice
Details: endpoint: mean survival time; dose: 400.0 mg/kg/injection; schedule: Q01DX001 (ip); vehicle: saline with Tween-80; higher = longer survival
Inconclusive results and toxic doses are left out.
measured.property: T/C

CC(CC(=O)O)NC(=O)OCc1ccccc1 (stereo unspecified); 95 % of control
COc1cccc(NC(=S)Nc2cccc(OC)c2)c1; 101 % of control
CC12CC(c3ccccc3)C(C)(C(c3ccccc3)=C1c1ccccc1)C2(C)O (stereo unspecified); 88 % of control
CC(=O)Nc1ccc(C(=O)O)c(OC(C)=O)c1; 97 % of control
O=C(/C=C(\c1ccccc1)C1C2C=CC(C2)C1c1ccccc1)c1ccccc1 (stereo unspecified); 96 % of control
Nc1cc(NC(c2ccccc2)c2ccccc2)c([N+](=O)[O-])c(N)n1; 93 % of control
